Molecular target: PfCRT^3D7 (Plasmodium falciparum)
Assay: cell-based
Assay type: cell-based
Details: PfCRT3D7 oocytes; [test solute] = 2 mM; total [3H]CQ transport, normalised to the oocyte type control; read-out: Uptake of [3H]CQ (% PfCRT3D7 control), cis-inhibition
Reported values of inhibition at 2000 µM for individual entries
Reply numerically in %, unit not repeated.

Solved entries (count: 3):
[[record]]
structure_notation = "NC(=O)CC[C@H](N)C(=O)O"
value_reported = 99

[[record]]
structure_notation = "CC[C@H](C)[C@H](N)C(=O)O"
value_reported = 102

[[record]]
structure_notation = "N[C@@H](CCC(=O)O)C(=O)O"
value_reported = 98


// query Give the measured inhibition at 2000 µM of N[C@@H](CO)C(=O)O .
// result 98

// query Okay, and C[C@@H](O)[C@H](N)C(=O)O ?
// result 99

// query Okay, and N[C@@H](Cc1c[nH]cn1)C(=O)O ?
// result 101

----------
Target: PfCRT^Dd2 (Plasmodium falciparum, UniProt Q9N623, A220S/I356T/K76T/M74I/N326S/N75E/Q271E/R371I)
Sequence (Q9N623 whole entry A220S/I356T/K76T/M74I/N326S/N75E/Q271E/R371I): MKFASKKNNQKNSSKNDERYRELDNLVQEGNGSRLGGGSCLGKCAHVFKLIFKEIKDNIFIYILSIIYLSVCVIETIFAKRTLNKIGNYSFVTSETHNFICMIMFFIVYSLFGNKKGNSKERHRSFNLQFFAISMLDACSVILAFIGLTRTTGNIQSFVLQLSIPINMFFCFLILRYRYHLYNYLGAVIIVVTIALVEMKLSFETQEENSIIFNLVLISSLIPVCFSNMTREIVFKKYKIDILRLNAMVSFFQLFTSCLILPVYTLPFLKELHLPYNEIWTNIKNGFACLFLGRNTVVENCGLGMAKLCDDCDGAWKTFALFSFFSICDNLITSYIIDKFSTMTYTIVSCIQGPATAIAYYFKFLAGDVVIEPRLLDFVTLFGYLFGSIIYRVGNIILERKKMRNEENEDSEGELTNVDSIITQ
Assay: [3H]CQ uptake into Xenopus oocytes, cis-inhibition by unlabelled solute
Type: cell-based
Settings: read-out: PfCRT-mediated [3H]CQ transport, cis-inhibition (% PfCRTDd2 control)
Reported values of inhibition at 1000 µM for individual entries
Reply with the number, then its unit.

Solved entries (count: 2):
[[record]]
structure_notation = "NC(=O)CC[C@H](N)C(=O)O"
value_reported = "98%"

[[record]]
structure_notation = "N[C@@H](CS)C(=O)O"
value_reported = "95%"


// query Give the measured inhibition at 1000 µM of NCCCC[C@H](N)C(=O)O .
// result 99%

// query Okay, and N[C@@H](CCC(=O)O)C(=O)O ?
// result 94%

// query Okay, and O=C(O)[C@@H]1CCCN1 ?
// result 96%

// query Okay, and CC(C)[C@H](N)C(=O)O ?
// result 98%

----------
Reported values of Trans-stimulation data: total [3H]CQ transport for individual entries
Molecular target: PfCRT^3D7 (Plasmodium falciparum)
Test: cell-based
Assay type: cell-based
Conditions: PfCRT3D7 oocytes; footnote b: highest intracellular concentration tested was 30 mM (solubility); normalised to the oocyte type control (control = 100)
Reply numerically in b, unit not repeated.

Solved entries (count: 2):
[[record]]
item_sequence = "FESFGDLSTPDAVMGNPKVK [FK-20, additional peptide, 20 residues]"
target_system = "PfCRT^3D7 (Plasmodium falciparum)"
value_reported = 101

[[record]]
item_sequence = "DDEGDDDPVPLPNVNA [DA-16, additional peptide, 16 residues]"
target_system = "PfCRT^3D7 (Plasmodium falciparum)"
value_reported = 100


// query Give the measured Trans-stimulation data: total [3H]CQ transport of LTPEEKSAVTAL [LL-12] .
// result 99

// query Okay, and VHLTPEEKSAVT [VT-12] ?
// result 99

// query Okay, and SFGDLSTPDAVMG [SG-13] ?
// result 99

// query Okay, and VEPSDTIENVK [VK-11] ?
// result 163

// query Okay, and NAVAHVDDMPNALSALSDLH [NH-20, additional peptide, 20 residues] ?
// result 99

// query Okay, and YFPHFDLS [YS-8] ?
// result 100

// query Okay, and LTPEEKSAVTALWGKVNVDEVGGEA [LA-25, additional peptide, 25 residues] ?
// result 99

// query Okay, and GTFATLSELHCDK [GK-13] ?
// result 100

----------
Reported values of Total [3H]CQ transport, trans-stimulation by injected solute for individual entries
Target: PfCRT^3D7 (Plasmodium falciparum, UniProt Q8IBZ9)
Sequence (Q8IBZ9 59-398): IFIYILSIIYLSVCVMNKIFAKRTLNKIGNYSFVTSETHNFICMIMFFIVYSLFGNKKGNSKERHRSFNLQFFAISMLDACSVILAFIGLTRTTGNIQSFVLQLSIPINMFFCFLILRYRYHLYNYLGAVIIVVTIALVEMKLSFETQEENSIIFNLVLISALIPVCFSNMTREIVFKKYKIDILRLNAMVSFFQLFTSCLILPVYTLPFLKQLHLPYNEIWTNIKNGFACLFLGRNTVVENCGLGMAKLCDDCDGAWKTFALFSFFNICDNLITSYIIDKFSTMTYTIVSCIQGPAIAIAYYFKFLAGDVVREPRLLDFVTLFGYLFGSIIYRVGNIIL
Test: cell-based
Format: cell-based
Conditions: PfCRT3D7 oocytes; footnote b: highest intracellular concentration tested was 30 mM (solubility)
Description: Unless specified otherwise, the transport assays were conducted over 1.5 h at 27.5 °C and the reaction buffer was ND96 (96 mM NaCl, 2 mM KCl, 1 mM MgCl2, 1.8 mM CaCl2, 10 mM MES and 10 mM Tris-base) at pH 5.5. The intracellular concentrations were calculated using previous estimates of the volume of stage V–VI oocytes (~400 nL[60]). […] The oocytes were injected with VF-6 suspended in 25 nL ND96 buffer adjusted to pH 5.0, 5.5, 6.0 or 7.0, which corresponded to the injection of 2.5–250 fmol of H^+. […]

Solved entries (count: 4):
[[record]]
item_sequence = "DDEGDDDPVPLPNVNA [DA-16, additional peptide, 16 residues]"
target_system = "PfCRT^3D7 (Plasmodium falciparum, UniProt Q8IBZ9)"
value_reported = "3.1 ± 0.02b % of the PfCRTDd2 control"

[[record]]
item_sequence = "NAVAHVDDMPNALSALSDLH [NH-20, additional peptide, 20 residues]"
target_system = "PfCRT^3D7 (Plasmodium falciparum, UniProt Q8IBZ9)"
value_reported = "3.0 ± 0.05b % of the PfCRTDd2 control"

[[record]]
item_sequence = "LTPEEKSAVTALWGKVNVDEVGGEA [LA-25, additional peptide, 25 residues]"
target_system = "PfCRT^3D7 (Plasmodium falciparum, UniProt Q8IBZ9)"
value_reported = "3.1 ± 0.02b % of the PfCRTDd2 control"

[[record]]
item_sequence = "SFGDLSTPDAVMG [SG-13]"
target_system = "PfCRT^3D7 (Plasmodium falciparum, UniProt Q8IBZ9)"
value_reported = "3.1 ± 0.05b % of the PfCRTDd2 control"


Next, consider the following sequence.
// query Give the measured Total [3H]CQ transport, trans-stimulation by injected solute of FESFGDLSTPDAVMGNPKVK [FK-20, additional peptide, 20 residues] .
// result 3.1 ± 0.05b % of the PfCRTDd2 control

----------
Biological target: PfCRT^Ecu1110 (Plasmodium falciparum, UniProt Q9N623, A220S/I356L/K76T/N326D)
Test: cell-based
Type: cell-based
Details: […], read-out: Uptake of [3H]CQ (% PfCRTDd2 control), trans-stimulation, PfCRTEcu1110, total [3H]CQ transport; [test solute]i = 45 mM (intracellular; 30 mM for some solutes due to solubility); mean ± SEM; SEM
Reported values of activity at 45000 µM for individual entries
Reply numerically in %, unit not repeated.

Solved entries (count: 10):
[[record]]
structure_notation = "NC(=O)CC[C@H](N)C(=O)O"
endpoint_label = "activity at 45000 µM"
value_reported = 35

[[record]]
structure_notation = "C[C@H](N)C(=O)O"
endpoint_label = "activity at 45000 µM"
value_reported = 36

[[record]]
structure_notation = "N[C@@H](Cc1ccccc1)C(=O)O"
endpoint_label = "activity at 45000 µM"
value_reported = 36

[[record]]
structure_notation = "NCCCC[C@H](N)C(=O)O"
endpoint_label = "activity at 45000 µM"
value_reported = 35

[[record]]
structure_notation = "N[C@@H](CCC(=O)O)C(=O)O"
endpoint_label = "activity at 45000 µM"
value_reported = 36

[[record]]
structure_notation = "N[C@@H](CS)C(=O)O"
endpoint_label = "activity at 45000 µM"
value_reported = 36

[[record]]
structure_notation = "N[C@@H](Cc1c[nH]c2ccccc12)C(=O)O"
endpoint_label = "activity at 45000 µM"
value_reported = 35

[[record]]
structure_notation = "N[C@@H](Cc1c[nH]cn1)C(=O)O"
endpoint_label = "activity at 45000 µM"
value_reported = 35

[[record]]
structure_notation = "CC(C)C[C@H](N)C(=O)O"
endpoint_label = "activity at 45000 µM"
value_reported = 36

[[record]]
structure_notation = "N[C@@H](CO)C(=O)O"
endpoint_label = "activity at 45000 µM"
value_reported = 35


// query Give the measured activity at 45000 µM of CC[C@H](C)[C@H](N)C(=O)O .
// result 35

// query Okay, and N=C(N)NCCC[C@H](N)C(=O)O ?
// result 35

----------
Molecular target: PfCRT^Ecu1110 (Plasmodium falciparum, UniProt Q9N623, A220S/I356L/K76T/N326D)
Experiment: [3H]CQ uptake into Xenopus oocytes, cis-inhibition by unlabelled solute
Assay type: cell-based
Conditions: read-out: Uptake of [3H]CQ (% PfCRTDd2 control), cis-inhibition, PfCRTEcu1110; SEM
Reported values of inhibition at 500 µM for individual entries
Reply with the number, then its unit.

[[record]]
structure_notation = "N[C@@H](Cc1c[nH]c2ccccc12)C(=O)O"
value_reported = "32%"


// query Give the measured inhibition at 500 µM of O=C(O)[C@@H]1CCCN1 .
// result 33%

// query Okay, and N[C@@H](CS)C(=O)O ?
// result 31%

// query Okay, and N[C@@H](Cc1ccc(O)cc1)C(=O)O ?
// result 32%

// query Okay, and N[C@@H](CO)C(=O)O ?
// result 32%

// query Okay, and C[C@@H](O)[C@H](N)C(=O)O ?
// result 31%

// query Okay, and CC[C@H](C)[C@H](N)C(=O)O ?
// result 31%

// query Okay, and N[C@@H](Cc1ccccc1)C(=O)O ?
// result 32%

// query Okay, and CC(C)[C@H](N)C(=O)O ?
// result 33%

// query Okay, and CSCC[C@H](N)C(=O)O ?
// result 31%

// query Okay, and N=C(N)NCCC[C@H](N)C(=O)O ?
// result 33%
